Biological target: T1, UBXD1-PUB (150–264) K198E (UniProt Q9BZV1 150-264, K198E)
T1 construct: UBXD1 PUB domain construct, residues 150-264, point mutant; source: E. coli Rosetta2, purified (Ni-NTA, thrombin cleavage of the tag, SEC); not shown: His6, N-terminal, cleaved
T1 sequence (looked up): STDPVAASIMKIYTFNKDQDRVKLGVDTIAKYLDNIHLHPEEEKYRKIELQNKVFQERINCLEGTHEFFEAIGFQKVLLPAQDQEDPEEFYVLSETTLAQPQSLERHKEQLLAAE
Experiment: fluorescence polarisation; fluorescence anisotropy; PUB constructs titrated to 100 nM 5,6-FAM labeled p97-C10 peptide; 50 mM NaKPi pH 6.5, 25 °C; triplicate; one-site quadratic fit
Details: both partners purified
No end group written: not given here.
endpointLabel: pKd
To interpret pKd, take it as minus log10 of a concentration measured in moles per litre.

Exercise: Form field: reported pKd of TEDNDDDLYG (also: 5,6-FAM label, position not given here, source: synthetic peptide, bought: Caslo ApS (Denmark)) [5,6-FAM-labeled p97-C10 peptide]
Solution: 4.31
